relative viability reference
# Tested on: LXF-289
# test: relative viability (nuclei count vs DMSO), 5 days (fraction); higher = more cells survive
# settings: first compound 0.08 µM
parameterMeasured: relative viability

compound	parameterMeasured	readoutNumber
Cc1cnc(-c2cnc(NCCNc3ccc(C#N)cn3)nc2-c2ccc(Cl)cc2Cl)[nH]1 + Cc1nc(NC(=O)N2CCC[C@H]2C(N)=O)sc1-c1ccnc(C(C)(C)C(F)(F)F)c1 [Alpelisib] (partner 2 µM)	relative viability	1.11
Cc1cnc(-c2cnc(NCCNc3ccc(C#N)cn3)nc2-c2ccc(Cl)cc2Cl)[nH]1 + CS(=O)(=O)N1CCN(Cc2cc3nc(-c4cccc5[nH]ncc45)nc(N4CCOCC4)c3s2)CC1 [Pictilisib] (partner 1 µM)	relative viability	0.841
Cc1cnc(-c2cnc(NCCNc3ccc(C#N)cn3)nc2-c2ccc(Cl)cc2Cl)[nH]1 + CCNC(=O)c1noc(-c2cc(C(C)C)c(O)cc2O)c1-c1ccc(CN2CCOCC2)cc1 [Luminespib] (partner 0.01 µM)	relative viability	0.695
Cc1cnc(-c2cnc(NCCNc3ccc(C#N)cn3)nc2-c2ccc(Cl)cc2Cl)[nH]1 + Cc1cc(Nc2cc(N3CCN(C)CC3)nc(Sc3ccc(NC(=O)C4CC4)cc3)n2)n[nH]1 [Tozasertib] (partner 0.1 µM)	relative viability	0.223
O=c1[nH]c2ccccc2n1C1CCN(CCCC(c2ccc(F)cc2)c2ccc(F)cc2)CC1 [Pimozide] + Nc1nc2[nH]cc(CCc3ccc(C(=O)N[C@@H](CCC(=O)O)C(=O)O)cc3)c2c(=O)[nH]1 [Pemetrexed] (partner 0.2 µM)	relative viability	0.859
O=c1[nH]c2ccccc2n1C1CCN(CCCC(c2ccc(F)cc2)c2ccc(F)cc2)CC1 [Pimozide] + CS(=O)(=O)CCNCc1ccc(-c2ccc3ncnc(Nc4ccc(OCc5cccc(F)c5)c(Cl)c4)c3c2)o1 [Lapatinib] (partner 2 µM)	relative viability	0.863
O=c1[nH]c2ccccc2n1C1CCN(CCCC(c2ccc(F)cc2)c2ccc(F)cc2)CC1 [Pimozide] + O=C(c1cc(Cc2n[nH]c(=O)c3ccccc23)ccc1F)N1CCN(C(=O)C2CC2)CC1 [Olaparib] (partner 8 µM)	relative viability	1.09

----------
# Test system: NCI-H1793
# test: relative viability (nuclei count vs DMSO), 5 days (fraction); higher = more cells survive
# settings: first compound 0.002 µM
Documented relative viability across a set of molecules

molecule	relative viability
CC(=O)O[C@@]12CO[C@@H]1C[C@H](O)[C@@]1(C)C(=O)[C@H](O)C3=C(C)[C@@H](OC(=O)[C@H](O)[C@@H](NC(=O)OC(C)(C)C)c4ccccc4)C[C@@](O)([C@@H](OC(=O)c4ccccc4)[C@H]21)C3(C)C [Docetaxel] + O=C(CCCCCCC(=O)Nc1ccccc1)NO [Vorinostat] (partner 1 µM)	0.199
CC(=O)O[C@@]12CO[C@@H]1C[C@H](O)[C@@]1(C)C(=O)[C@H](O)C3=C(C)[C@@H](OC(=O)[C@H](O)[C@@H](NC(=O)OC(C)(C)C)c4ccccc4)C[C@@](O)([C@@H](OC(=O)c4ccccc4)[C@H]21)C3(C)C [Docetaxel] + C[C@]1(O)C[C@@H](c2nc(-c3ccc4ccc(-c5ccccc5)nc4c3)c3c(N)nccn32)C1 [Linsitinib] (partner 1 µM)	0.666
CC(=O)O[C@@]12CO[C@@H]1C[C@H](O)[C@@]1(C)C(=O)[C@H](O)C3=C(C)[C@@H](OC(=O)[C@H](O)[C@@H](NC(=O)OC(C)(C)C)c4ccccc4)C[C@@](O)([C@@H](OC(=O)c4ccccc4)[C@H]21)C3(C)C [Docetaxel] + Cc1cc(Nc2cc(N3CCN(C)CC3)nc(Sc3ccc(NC(=O)C4CC4)cc3)n2)n[nH]1 [Tozasertib] (partner 0.1 µM)	0.197

----------
# System: NCI-H2085
# test: relative viability (nuclei count vs DMSO), 5 days (fraction); higher = more cells survive
# settings: first compound 0.05 µM
# strict inequality: relative viability < 0.6 yields fulfilled, everything else yields not fulfilled

compound	category
Nc1ccn([C@@H]2O[C@H](CO)[C@@H](O)[C@@H]2O)c(=O)n1 [Cytarabine] + COc1cccc2cc(-c3nc([C@H]4CC[C@H](C(=O)O)CC4)n4ncnc(N)c34)[nH]c12 [OSI-027] (partner 0.5 µM)	not fulfilled
Nc1ccn([C@@H]2O[C@H](CO)[C@@H](O)[C@@H]2O)c(=O)n1 [Cytarabine] + O=C(CCCCCCC(=O)Nc1ccccc1)NO [Vorinostat] (partner 1 µM)	not fulfilled
COc1cc2nccc(Oc3ccc(NC(=O)Nc4cc(C)on4)c(Cl)c3)c2cc1OC [Tivozanib] + CS(=O)(=O)N1CCN(Cc2cc3nc(-c4cccc5[nH]ncc45)nc(N4CCOCC4)c3s2)CC1 [Pictilisib] (partner 1 µM)	fulfilled
COc1cc2nccc(Oc3ccc(NC(=O)Nc4cc(C)on4)c(Cl)c3)c2cc1OC [Tivozanib] + Cc1cc(Nc2cc(N3CCN(C)CC3)nc(Sc3ccc(NC(=O)C4CC4)cc3)n2)n[nH]1 [Tozasertib] (partner 0.1 µM)	not fulfilled
Nc1ccn([C@@H]2O[C@H](CO)[C@@H](O)[C@@H]2O)c(=O)n1 [Cytarabine] + Cc1nc(Nc2ncc(C(=O)Nc3c(C)cccc3Cl)s2)cc(N2CCN(CCO)CC2)n1 [Dasatinib] (partner 0.075 µM)	fulfilled
Nc1ccn([C@@H]2O[C@H](CO)[C@@H](O)[C@@H]2O)c(=O)n1 [Cytarabine] + Cc1cc(Nc2cc(N3CCN(C)CC3)nc(Sc3ccc(NC(=O)C4CC4)cc3)n2)n[nH]1 [Tozasertib] (partner 0.1 µM)	not fulfilled
COc1cc2nccc(Oc3ccc(NC(=O)Nc4cc(C)on4)c(Cl)c3)c2cc1OC [Tivozanib] + CC1(C)CCC(c2ccc(Cl)cc2)=C(CN2CCN(c3ccc(C(=O)NS(=O)(=O)c4ccc(N[C@H](CCN5CCOCC5)CSc5ccccc5)c(S(=O)(=O)C(F)(F)F)c4)cc3)CC2)C1 [Navitoclax] (partner 0.5 µM)	not fulfilled
Nc1ccn([C@@H]2O[C@H](CO)[C@@H](O)[C@@H]2O)c(=O)n1 [Cytarabine] + O=C(c1cc(Cc2n[nH]c(=O)c3ccccc23)ccc1F)N1CCN(C(=O)C2CC2)CC1 [Olaparib] (partner 8 µM)	not fulfilled
COc1cc2nccc(Oc3ccc(NC(=O)Nc4cc(C)on4)c(Cl)c3)c2cc1OC [Tivozanib] + CC(=O)Nc1cccc(-n2c(=O)n(C3CC3)c(=O)c3c(Nc4ccc(I)cc4F)n(C)c(=O)c(C)c32)c1 [Trametinib] (partner 0.02 µM)	fulfilled
COc1cc2nccc(Oc3ccc(NC(=O)Nc4cc(C)on4)c(Cl)c3)c2cc1OC [Tivozanib] + O=C(CCCCCCC(=O)Nc1ccccc1)NO [Vorinostat] (partner 1 µM)	not fulfilled
Nc1ccn([C@@H]2O[C@H](CO)[C@@H](O)[C@@H]2O)c(=O)n1 [Cytarabine] + Cc1nc(NC(=O)N2CCC[C@H]2C(N)=O)sc1-c1ccnc(C(C)(C)C(F)(F)F)c1 [Alpelisib] (partner 2 µM)	not fulfilled
COc1cc2nccc(Oc3ccc(NC(=O)Nc4cc(C)on4)c(Cl)c3)c2cc1OC [Tivozanib] + Nc1ncn([C@H]2C[C@H](O)[C@@H](CO)O2)c(=O)n1 [Decitabine] (partner 2 µM)	not fulfilled

----------
# relative viability annotations
# System: NCI-H2405
# test: relative viability (nuclei count vs DMSO), 5 days (fraction); higher = more cells survive
# settings: first compound 0.5 µM

molecule	relative viability
Nc1ccn([C@@H]2O[C@H](CO)[C@@H](O)[C@@H]2O)c(=O)n1 [Cytarabine] + Nc1nc2[nH]cc(CCc3ccc(C(=O)N[C@@H](CCC(=O)O)C(=O)O)cc3)c2c(=O)[nH]1 [Pemetrexed] (partner 0.2 µM)	0.41
Nc1ccn([C@@H]2O[C@H](CO)[C@@H](O)[C@@H]2O)c(=O)n1 [Cytarabine] + C[C@@H](Oc1cc(-c2cnn(C3CCNCC3)c2)cnc1N)c1c(Cl)ccc(F)c1Cl [Crizotinib] (partner 1 µM)	0.327
COc1cc2nccc(Oc3ccc(NC(=O)Nc4cc(C)on4)c(Cl)c3)c2cc1OC [Tivozanib] + CS(=O)(=O)CCNCc1ccc(-c2ccc3ncnc(Nc4ccc(OCc5cccc(F)c5)c(Cl)c4)c3c2)o1 [Lapatinib] (partner 2 µM)	0.572

----------
# System: UMC-11
# test: relative viability (nuclei count vs DMSO), 5 days (fraction); higher = more cells survive
# settings: first compound 8 µM

compound	relative viability
O=c1[nH]c2ccccc2n1C1CCN(CCCC(c2ccc(F)cc2)c2ccc(F)cc2)CC1 [Pimozide] + Nc1nc2[nH]cc(CCc3ccc(C(=O)N[C@@H](CCC(=O)O)C(=O)O)cc3)c2c(=O)[nH]1 [Pemetrexed] (partner 0.2 µM)	0.725
O=c1[nH]c2ccccc2n1C1CCN(CCCC(c2ccc(F)cc2)c2ccc(F)cc2)CC1 [Pimozide] + CS(=O)(=O)CCNCc1ccc(-c2ccc3ncnc(Nc4ccc(OCc5cccc(F)c5)c(Cl)c4)c3c2)o1 [Lapatinib] (partner 2 µM)	0.56
